- measurement-description: Metabolic stability in Sprague-Dawley rat liver microsomes assessed as compound remaining at 100 uM […] followed by NADPH addition by LC/MS analysis
- Type: ADME, Microsome
- test-conditions: read-out: Stability
quantity-name: remaining at 100 µM (%)

| smiles | unit-abbrev | endpoint-value |
| --- | --- | --- |
| CN1CCC(N(Cc2ccc(F)cn2)C(=O)NCc2ccc(OCC(F)(F)F)cc2)CC1 | % | 66.5 |
| CN1CCC(N(Cc2ccc(F)cn2)C(=O)NCc2ccc3c(c2)CC(C)(C)O3)CC1 | % | 55 |
| CN1CCC(N(Cc2ccc(F)cn2)C(=O)NCc2ccc(OCCCF)cc2)CC1 | % | 80.4 |
| CC(C)COc1ccc(CNC(=O)N(Cc2ccc(F)cc2)C2CCN(C)CC2)cc1 | % | 68.5 |

----------
- measurement-description: AUC(0 to 24 hrs) in monkey at 100 mg/kg by UHPLC/FT-ICR-MS analysis
- Type: ADME, organism-based, Macaca mulatta
- Set-up: time < 24 hr, dose 100 mg/kg
- test-conditions: rhesus monkey, in vivo
quantity-name: AUC(0-t) at 24 h (ng·h/mL)

| smiles | quantity-name | endpoint-value |
| --- | --- | --- |
| CC(C)COc1ccc(CNC(=O)N(Cc2ccc(F)cc2)C2CCN(C)CC2)cc1 | AUC(0-t) at 24 h | 7730 |

----------
Consider the following pIC50 values measured on Cytochrome P450 2C9 (Homo sapiens).
Sequence (P11712 whole entry): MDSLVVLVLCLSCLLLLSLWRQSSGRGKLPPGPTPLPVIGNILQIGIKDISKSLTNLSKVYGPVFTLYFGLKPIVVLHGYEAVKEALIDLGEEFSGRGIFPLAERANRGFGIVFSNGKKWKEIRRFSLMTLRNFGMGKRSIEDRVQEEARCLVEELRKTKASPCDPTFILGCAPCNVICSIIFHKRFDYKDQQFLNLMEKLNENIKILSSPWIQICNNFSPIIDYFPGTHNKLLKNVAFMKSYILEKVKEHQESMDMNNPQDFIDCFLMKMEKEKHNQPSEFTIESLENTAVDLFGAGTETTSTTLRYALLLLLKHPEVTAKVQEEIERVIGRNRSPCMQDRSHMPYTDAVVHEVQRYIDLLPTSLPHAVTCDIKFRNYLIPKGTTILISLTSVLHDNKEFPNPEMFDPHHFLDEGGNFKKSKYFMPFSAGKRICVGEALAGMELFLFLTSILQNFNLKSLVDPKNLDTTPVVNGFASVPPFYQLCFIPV
pIC50: −log10 of the molar value.
quantity-name: pIC50

| smiles | endpoint-value |
| --- | --- |
| CN1CCC(N(Cc2ccc(F)cn2)C(=O)NCc2ccc(OCC(F)(F)F)cc2)CC1 | < 4.00 |
| CC(C)COc1ccc(CNC(=O)N(Cc2ccc(F)cc2)C2CCN(C)CC2)cc1 | < 4.00 |

----------
- system-under-test: 5-hydroxytryptamine receptor 2A (Homo sapiens, UniProt P28223)
- Sequence (P28223 whole entry): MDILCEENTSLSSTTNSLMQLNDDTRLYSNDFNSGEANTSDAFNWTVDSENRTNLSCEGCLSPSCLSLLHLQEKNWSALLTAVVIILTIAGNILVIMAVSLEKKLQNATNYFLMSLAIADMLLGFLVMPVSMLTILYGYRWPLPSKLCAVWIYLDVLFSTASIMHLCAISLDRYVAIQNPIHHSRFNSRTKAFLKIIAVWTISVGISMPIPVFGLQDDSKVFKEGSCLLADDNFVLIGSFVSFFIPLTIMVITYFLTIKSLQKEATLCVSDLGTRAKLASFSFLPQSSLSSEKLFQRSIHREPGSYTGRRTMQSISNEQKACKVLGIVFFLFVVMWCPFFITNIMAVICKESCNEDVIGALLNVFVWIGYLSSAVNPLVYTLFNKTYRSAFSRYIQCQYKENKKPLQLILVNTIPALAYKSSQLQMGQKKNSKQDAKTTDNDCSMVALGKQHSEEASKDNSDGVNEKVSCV
- measurement-description: Inverse agonist activity at 5-HT2A receptor (unknown origin) expressed in mouse NIH3T3 cells using o-nitrophenyl-D-galacto pyranoside incubated for 120 hrs
- Assay type: functional, cell-based

| smiles | IC50 |
| --- | --- |
| CC(C)COc1ccc(CNC(=O)N(Cc2ccc(F)cc2)C2CCN(CCN(C)C)CC2)cc1 | > 500 nM |
| CC(C)COc1ccc(CNC(=O)N(Cc2ccc(F)nc2)C2CCN(C)CC2)cc1 | > 500 nM |
| Cc1noc(C)c1CN(C(=O)NCc1ccc(OCC(C)C)cc1)C1CCN(C)CC1 | > 500 nM |
